For each record, write down the corresponding relative viability.
# System: MES-SA
# Measurement Protocol: relative viability vs DMSO control (72 h) (fraction); higher = more viable cells
# Recorded Conditions: 0.00017 µM
Give bare numbers.

Cc1cc(Nc2ncnc3ccc(NC4=NC(C)(C)CO4)cc23)ccc1Oc1ccn2ncnc2c1 [Tucatinib]    0.988
C=CC(=O)N1CCC([C@@H]2CCNc3c(C(N)=O)c(-c4ccc(Oc5ccccc5)cc4)nn32)CC1 [Zanubrutinib]    0.96
C=CC(=O)N1CCC[C@@H](n2nc(-c3ccc(Oc4ccccc4)cc3)c3c(N)ncnc32)C1 [Ibrutinib]    1
Cc1ccc(NC(=O)c2ccc(CN3CCN(C)CC3)cc2)cc1Nc1nc(-c2cccnc2)cs1 [Masitinib]    0.978
COc1cc2/c(=N/c3ccc(Br)cc3F)nc[nH]c2cc1OCC1CCN(C)CC1 [Vandetanib]    0.907
Cc1nc(NC(=O)N2CCC[C@H]2C(N)=O)sc1-c1ccnc(C(C)(C)C(F)(F)F)c1 [Alpelisib]    0.884

List the reported relative viability of each compound below.
1. Cc1cc(C)c(/C=C2\C(=O)Nc3ccccc32)[nH]1 [Semaxanib]
2. COCc1c(-c2cc3cc(C)cc(OC)c3s2)c2c(N)ncnn2c1CN1CCNC(=O)C1 [Rogaratinib]

**A:**
0.908
0.974
